Origin of values: patent US10087148B2

tested.system: norepinephrine transporter (NET) (Rattus norvegicus, UniProt Q63380)
Sequence (Q63380 1-617): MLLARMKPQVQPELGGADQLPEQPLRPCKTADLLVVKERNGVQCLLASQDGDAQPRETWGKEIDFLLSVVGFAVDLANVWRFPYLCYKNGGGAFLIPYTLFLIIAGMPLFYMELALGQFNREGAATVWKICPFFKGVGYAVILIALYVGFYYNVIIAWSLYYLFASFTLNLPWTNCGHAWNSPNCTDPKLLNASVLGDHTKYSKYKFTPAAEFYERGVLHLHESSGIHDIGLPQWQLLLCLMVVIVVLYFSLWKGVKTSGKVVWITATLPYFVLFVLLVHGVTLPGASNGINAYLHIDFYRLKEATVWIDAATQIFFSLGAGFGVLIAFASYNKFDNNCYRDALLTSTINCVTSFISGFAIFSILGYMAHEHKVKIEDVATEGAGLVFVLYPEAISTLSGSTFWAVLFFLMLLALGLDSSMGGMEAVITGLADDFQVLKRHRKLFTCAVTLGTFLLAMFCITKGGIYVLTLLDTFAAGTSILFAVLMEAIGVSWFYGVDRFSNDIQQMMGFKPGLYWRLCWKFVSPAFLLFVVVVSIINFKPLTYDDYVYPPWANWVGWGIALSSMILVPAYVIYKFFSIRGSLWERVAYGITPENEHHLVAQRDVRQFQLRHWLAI
protocol.summary: [3H]norepinephrine (NE) uptake inhibition in rat brain synaptosomes
Assay type: biochemical
condition.details: read-out: NET Uptake Emax
observed.property: Emax (%)
Reply numerically in %, unit not repeated.

Reference set, count: 8
• Cc1cc2nccn2cc1-c1nc(NCC(c2ccccc2)c2ccccc2)c2ccccc2n1 = 67
• Cn1cc2cc(-c3nc(NCC(c4ccccc4)c4ccccc4)c4ccccc4n3)ccc2n1 = 71
• CS(=O)(=O)Nc1ccc(-c2nc(NCC(c3ccccc3)c3ccccc3)c3ccccc3n2)cc1 = 71
• CSc1ncc(-c2nc(NCC(c3ccccc3)c3ccccc3)c3ccccc3n2)cn1 = 62
• CN(C)c1ccc(-c2nc(NCC(c3ccccc3)c3ccccc3)c3ccccc3n2)cn1 = 71
• Cc1cc(NS(C)(=O)=O)ccc1-c1nc(NCC(c2ccccc2)c2ccccc2)c2ccccc2n1 = 65
• CS(=O)(=O)Nc1ccc(-c2nc(NCC(c3ccccc3)c3ccncc3)c3ccccc3n2)cc1 (stereo not drawn) = 76
• CN(C)c1ncc(-c2nc(NCCC(c3ccccc3)c3ccccc3)c3ccccc3n2)cn1 = 64

Entry `c1ccc(C(CNc2nc(-c3ccc4[nH]ccc4c3)nc3ccccc23)c2ccccc2)cc1` — recorded Emax = 70
